This listing pairs molecules with measured IC50.
target entity: EGFR del19 T790M C797S protein in Ba/F3 cells (Homo sapiens, UniProt P00533, C797S/DEL746-750/T790M)
Sequence (P00533 with tags, fused parts or gaps C797S/DEL746-750/T790M limits assumed): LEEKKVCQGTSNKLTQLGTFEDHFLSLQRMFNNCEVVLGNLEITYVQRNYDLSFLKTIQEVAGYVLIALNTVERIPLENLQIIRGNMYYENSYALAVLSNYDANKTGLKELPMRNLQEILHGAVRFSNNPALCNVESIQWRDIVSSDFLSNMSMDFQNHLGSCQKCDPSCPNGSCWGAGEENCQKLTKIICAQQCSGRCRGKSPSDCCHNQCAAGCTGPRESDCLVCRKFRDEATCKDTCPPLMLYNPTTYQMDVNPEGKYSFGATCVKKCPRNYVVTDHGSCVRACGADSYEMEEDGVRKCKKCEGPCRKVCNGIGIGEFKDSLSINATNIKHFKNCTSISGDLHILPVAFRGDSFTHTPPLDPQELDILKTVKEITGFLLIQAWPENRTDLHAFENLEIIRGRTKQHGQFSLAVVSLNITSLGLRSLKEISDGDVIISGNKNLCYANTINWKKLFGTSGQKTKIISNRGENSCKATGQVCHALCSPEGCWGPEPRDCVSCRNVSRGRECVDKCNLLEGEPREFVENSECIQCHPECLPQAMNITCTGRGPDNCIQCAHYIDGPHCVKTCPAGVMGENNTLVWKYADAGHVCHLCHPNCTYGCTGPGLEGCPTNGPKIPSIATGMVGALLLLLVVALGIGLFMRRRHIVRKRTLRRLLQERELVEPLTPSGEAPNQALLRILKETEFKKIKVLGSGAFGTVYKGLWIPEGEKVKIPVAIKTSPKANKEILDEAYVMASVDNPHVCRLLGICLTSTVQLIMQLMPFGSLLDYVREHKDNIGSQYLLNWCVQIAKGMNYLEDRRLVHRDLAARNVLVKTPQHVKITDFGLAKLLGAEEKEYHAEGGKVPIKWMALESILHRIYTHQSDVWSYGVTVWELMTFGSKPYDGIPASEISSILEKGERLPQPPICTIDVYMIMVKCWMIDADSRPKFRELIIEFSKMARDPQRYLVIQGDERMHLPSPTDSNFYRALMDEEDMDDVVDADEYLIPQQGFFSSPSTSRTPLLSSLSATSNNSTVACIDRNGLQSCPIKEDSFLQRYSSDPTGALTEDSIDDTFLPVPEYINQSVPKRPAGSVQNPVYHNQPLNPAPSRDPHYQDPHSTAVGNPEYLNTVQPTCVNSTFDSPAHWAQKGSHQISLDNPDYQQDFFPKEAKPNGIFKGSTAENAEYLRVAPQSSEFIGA
assay details: pEGFR assay (AlphaScreen Surefire, EGFR Tyr1068 phosphorylation)

molecule | IC50
COc1ccncc1-c1cc(C(=O)/N=c2\[nH]c3cc(CN4CCOCC4)ccc3n2[C@H]2CC[C@@H](O)CC2)cc(C#N)n1 [I-196] | 5 nM

Prompt line: Tell me the measured IC50 of CC(C)(O)Cn1/c(=N/C(=O)c2ccnc(-c3cccnc3)c2)[nH]c2cc(Cl)ccc21 [I-066] , please.
Response line: 23 nM

Prompt line: Tell me the measured IC50 of Cn1cc(-c2cc(C(=O)/N=c3\[nH]c4ccccc4n3[C@H]3COC[C@H](O)C3)ccn2)cn1 [I-168] , please.
Response line: 10 nM

Prompt line: Tell me the measured IC50 of COc1c(C)cccc1-c1cc(C(=O)/N=c2\[nH]c3ccccc3n2[C@H]2CC[C@@H](O)CC2)ccn1 [I-162] , please.
Response line: 6 nM

Prompt line: Tell me the measured IC50 of Cn1cc(-c2cc(C(=O)/N=c3\[nH]c4cc(C5CCCOC5)ccc4n3CC(C)(C)O)ccn2)cn1 (stereo not drawn) [I-053] , please.
Response line: 2 nM

Prompt line: Tell me the measured IC50 of Cc1cc2c(cc1N(C)C)[nH]/c(=N\C(=O)c1ccnc(-c3cnn(C)c3)c1)n2CC(C)(C)O [I-231] , please.
Response line: 63 nM

Prompt line: Tell me the measured IC50 of CC(=O)N1CCC(c2ccc3c(c2)[nH]/c(=N\C(=O)c2ccnc(-c4cnn(C)c4)c2)n3C2CCCC2)CC1 [I-008] , please.
Response line: 6 nM
